Test: Phase 1 two-period crossover study of the effect of quinidine on the pharmacokinetics of opicapone (plasma PK)
Assay type: in vivo, human
Conditions: both sexes, human, plasma, oral, 50 mg, opicapone in plasma; healthy subjects, fasted, single dose OPC 50 mg; Geometric Mean (descriptive); read-out: Cmax, Geometric Mean
Observed property: Cmax (ng/mL)
I only need the number, in ng/mL, no unit after it.

GET /value?item= Cc1c(Cl)c(C)[n+]([O-])c(Cl)c1-c1noc(-c2cc(O)c(O)c([N+](=O)[O-])c2)n1 &field=Cmax returns 766

====

Assay: Phase 1 two-period crossover study of the effect of quinidine on the pharmacokinetics of opicapone (plasma PK)
Assay type: in vivo, human
Conditions: both sexes, human, plasma, oral, 50 mg, opicapone in plasma; healthy subjects, fasted, single dose OPC 50 mg; Mean; read-out: AUC(0-inf), Mean
Observed property: AUC(0-inf) (ng·h/mL)
I only need the number, in ng·h/mL, no unit after it.

GET /value?item= Cc1c(Cl)c(C)[n+]([O-])c(Cl)c1-c1noc(-c2cc(O)c(O)c([N+](=O)[O-])c2)n1 &field=AUC(0-inf) returns 2140

====

Test: Phase 1 two-period crossover study of the effect of quinidine on the pharmacokinetics of opicapone (plasma PK)
Type: in vivo, human
Details: both sexes, human, plasma, oral, 50 mg, opicapone in plasma; healthy subjects, fasted, single dose OPC 50 mg; Geometric Mean (descriptive); read-out: AUC(0-last), Geometric Mean
Observed property: AUC(0-t) (ng·h/mL)
I only need the number, in ng·h/mL, no unit after it.

GET /value?item= Cc1c(Cl)c(C)[n+]([O-])c(Cl)c1-c1noc(-c2cc(O)c(O)c([N+](=O)[O-])c2)n1 [OPC] &field=AUC(0-t) returns 1960

====

Experiment: Phase 1 two-period crossover study of the effect of quinidine on the pharmacokinetics of opicapone (plasma PK)
Type: in vivo, human
Details: both sexes, human, oral; opicapone in plasma; healthy subjects, fasted, single dose OPC 50 mg; Median
Observed property: Tmax (h)
I only need the number, in h, no unit after it.

GET /value?item= Cc1c(Cl)c(C)[n+]([O-])c(Cl)c1-c1noc(-c2cc(O)c(O)c([N+](=O)[O-])c2)n1 [OPC] &field=Tmax returns 1.53

====

Assay: Phase 1 two-period crossover study of the effect of quinidine on the pharmacokinetics of opicapone (plasma PK)
Assay type: in vivo, human
Conditions: both sexes, human, plasma, oral, 50 mg, opicapone in plasma; healthy subjects, fasted, single dose OPC 50 mg; Geometric Mean (descriptive); read-out: t½, Geometric Mean (converted)
Observed property: half-life (min)
I only need the number, in min, no unit after it.

GET /value?item= Cc1c(Cl)c(C)[n+]([O-])c(Cl)c1-c1noc(-c2cc(O)c(O)c([N+](=O)[O-])c2)n1 &field=half-life returns 53.2
